Molecular target: human Edg-2 receptor (Homo sapiens)
Sequence (Q92633 whole entry): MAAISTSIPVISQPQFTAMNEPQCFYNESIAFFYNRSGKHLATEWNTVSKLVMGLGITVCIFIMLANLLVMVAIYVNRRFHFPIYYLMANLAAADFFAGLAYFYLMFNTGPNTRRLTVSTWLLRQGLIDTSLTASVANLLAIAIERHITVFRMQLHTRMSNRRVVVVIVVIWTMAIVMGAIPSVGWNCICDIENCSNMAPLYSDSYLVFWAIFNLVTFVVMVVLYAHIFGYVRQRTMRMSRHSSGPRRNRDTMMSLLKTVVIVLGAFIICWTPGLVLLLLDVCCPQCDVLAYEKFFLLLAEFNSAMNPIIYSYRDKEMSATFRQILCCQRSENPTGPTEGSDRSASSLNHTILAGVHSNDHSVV
Assay: Determination of Edg-2 receptor inhibition by FLIPR measurements (LPA-mediated calcium liberation)
Details: CHO cells overexpressing human Edg-2 receptor, LPA 100 nM, fluo-4 calcium fluorescence; read-out: Inhibitory concentrations IC50 for inhibition of the Edg-2 receptor
Description: A) Determination of Edg-2 Receptor Inhibition by Fluorescence Imaging Plate Reader (FLIPR) Measurements The inhibition of the Edg-2 receptor (LPA1 receptor) by the compounds of the invention was quantified by the inhibitory effect on the LPA-mediated calcium liberation in a cell-based calcium fluorescence assay by use of Chinese hamster ovarian (CHO) cells in which the human Edg-2 receptor was stably overexpressed (Flp-In system, Invitrogen). […]
pIC50: −log10 of the molar value.
Listed next: entries and their corresponding pIC50.
Value type: pIC50

Smiles	Value observed
COc1ncc(C(=O)NC2(C(=O)O)CCCCCC2)cc1-c1cccc(Cl)c1Cl	> 7.00
Cc1cccc(CCOc2cc(C(=O)N[C@]3(C(=O)O)CC[C@H](C(F)(F)F)CC3)cc3c2OCO3)c1	> 7.00
CC[C@H]1CC[C@](NC(=O)c2cnc(OC)c(OCCc3cccc(OC(F)(F)F)c3)c2)(C(=O)O)CC1	> 7.00
CC[C@H]1CC[C@@](NC(=O)c2cnc(OC)c(OCCc3cccc(OC(F)(F)F)c3)c2)(C(=O)O)CC1	> 7.00
CC[C@H]1CC[C@@](NC(=O)c2cc(F)c(OCCO)c(-c3cccc(C(F)(F)F)c3)c2)(C(=O)O)CC1	> 7.00
COc1ccc(C(=O)N[C@]2(C(=O)O)CC[C@H](C)CC2)cc1OCCc1cc(OC(F)(F)F)ccc1F	> 7.00
CC[C@H]1CC[C@](NC(=O)c2cnc(OC)c(OCCc3cccc(CCO)c3)c2)(C(=O)O)CC1	> 7.00
COc1ccc(C(=O)NC2(C(=O)O)CCCCCC2)cc1OCCc1cccs1	6.00 to 7.00
CCc1ncc(C(=O)N[C@]2(C(=O)O)CC[C@@H](CC)CC2)cc1OCCc1cccc(Cl)c1	> 7.00
Cc1cccc(CCOc2cc(C(=O)NC3(C(=O)O)CCCCCC3)ccc2OCCO)c1	6.00 to 7.00
COc1ncc(C(=O)N[C@]2(C(=O)O)CC[C@@H](C)CC2)cc1-c1cccc(Cl)c1Cl	> 7.00
CCc1sc(C(=O)N[C@]2(C(=O)O)CC[C@@H](CC)CC2)cc1OCCc1cccc(Cl)c1	6.00 to 7.00
Cc1cccc(CCOc2cc(C(=O)NC3(C(=O)O)CCCCCC3)ccc2Br)c1	> 7.00
COc1ccc(C(=O)NC2(C(=O)O)CCC3(CC3)CC2)cc1OCCc1cccc(C)c1	> 7.00
CC[C@H]1CC[C@](NC(=O)c2cnc(OC)c(-c3cccc(C(F)(F)F)c3F)c2)(C(=O)O)CC1	> 7.00
